Numbers sourced from patent US4769377A.

Recorded IC50 by entry
# study system: adenosine A1 receptors (Bos taurus)
# protocol notes: inhibition of [^3 H]CHA binding to A1 adenosine receptors in bovine brain membranes
# cond: Table II; vs [^3 H-CHA] in bovine brain
Write it as a number; the unit nM goes unstated.

Take a look at these entries with their results.
Cn1c(=O)c2[nH]c(-[c-]3cccc3)nc2n(C)c1=O.[Fe+2].c1cc[cH-]c1 : 20
Cn1c(=O)c2[nH]c(-c3ccc([N+](=O)[O-])cc3N)nc2n(C)c1=O : 2.5
COc1cccc(-c2nc3c([nH]2)c(=O)n(C)c(=O)n3C)c1 : 20

GET /values?readout=IC50&item= `Cn1c(=O)c2[nH]c(-c3ccncc3)nc2n(C)c1=O`
35

====

# study system: adenosine A1 receptors (Bos taurus)
# protocol notes: inhibition of [^3 H]CHA binding to A1 adenosine receptors in bovine brain membranes
# cond: Table II; vs [^3 H-CHA] in bovine brain
property label: pIC50
API: returns pIC50 as number; meaning -log10 of concentration in mol/L.

Take a look at these entries with their results.
CCn1c(=O)c2[nH]c(-c3ccc(Cl)cc3N)nc2n(CC)c1=O [1,3-diethyl-8-(2-amino-4-chlorophenyl)X] : 9.10
Cn1c(=O)c2[nH]c(-c3ccc([N+](=O)[O-])cc3)nc2n(C)c1=O [8-(p-nitrophenyl)T] : 8.10

Notebook entry, adenosine A1 receptors (Bos taurus) assay: pIC50 of CCc1ccc(-c2nc3c([nH]2)c(=O)n(C)c(=O)n3C)cc1 [8-(p-ethylphenyl)T] = ?
9.10

Notebook entry, adenosine A1 receptors (Bos taurus) assay: pIC50 of CCOc1ccc(-c2nc3c([nH]2)c(=O)n(C)c(=O)n3C)cc1 [8-(p-ethoxyphenyl)T] = ?
8.70

====

# study system: adenosine A1 receptors (Bos taurus)
# protocol notes: biochemical
Recorded Ki by entry
Write it as a number; the unit nM goes unstated.

Take a look at these entries with their results.
Cn1c(=O)c2[nH]c(-c3ccc(N)cc3N)nc2n(C)c1=O : 5.9
CCn1c(=O)c2[nH]c(-c3ccc(Cl)cc3N)nc2n(CC)c1=O : 0.32
Cn1c(=O)c2[nH]c(-c3ccc([N+](=O)[O-])cc3N)nc2n(C)c1=O : 1.2
Cn1c(=O)c2[nH]c(-c3ccc(Cl)cc3N)nc2n(C)c1=O : 0.2

GET /values?readout=Ki&item= `CCCn1c(=O)c2nc(-c3ccc(N)cc3N)[nH]c2n(CCC)c1=O`
0.14

====

# study system: adenosine A1 receptors (Bos taurus)
# protocol notes: inhibition of [^3 H]CHA binding to A1 adenosine receptors in bovine brain membranes
Recorded Ki by entry
Write it as a number; the unit nM goes unstated.

Take a look at these entries with their results.
Cn1c(=O)c2[nH]c(-c3ccc(C(=O)O)cc3)nc2n(C)c1=O : 18
Cn1c(=O)c2[nH]c(-c3ccc(N)cc3)nc2n(C)c1=O : 0.69
Cn1c(=O)c2[nH]c(-c3ccccc3C(=O)O)nc2n(C)c1=O : 21000

Could you now look at the following molecule, please?
GET /values?readout=Ki&item= Cn1c(=O)c2[nH]c(-c3cccc(O)c3)nc2n(C)c1=O [8-(m-hydroxyphenyl)T]
3.1

====

Recorded IC50 by entry
# study system: adenosine A1 receptors (Bos taurus, UniProt P28190)
# Sequence (P28190 1-326): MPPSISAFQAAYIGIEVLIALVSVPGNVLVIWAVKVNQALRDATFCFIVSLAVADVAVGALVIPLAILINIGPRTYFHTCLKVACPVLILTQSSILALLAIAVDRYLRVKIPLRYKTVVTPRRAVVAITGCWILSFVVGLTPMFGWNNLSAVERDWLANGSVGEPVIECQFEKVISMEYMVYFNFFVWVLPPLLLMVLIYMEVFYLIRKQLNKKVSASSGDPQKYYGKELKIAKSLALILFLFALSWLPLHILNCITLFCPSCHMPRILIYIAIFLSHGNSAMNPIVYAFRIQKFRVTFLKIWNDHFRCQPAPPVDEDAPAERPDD
# protocol notes: inhibition of [^3 H]CHA binding to A1 adenosine receptors in bovine brain membranes;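 further: Filter-bound radioactivity read by liquid scintillation counting, with dose-inhibition curves built from 4–8 test concentrations, each run in triplicate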
# cond: Table II; vs [^3 H-CHA] in bovine brain
Write it as a number; the unit nM goes unstated.

Take a look at these entries with their results.
C=CCn1c(=O)c2[nH]c(-c3ccc(C)cc3N)nc2n(C)c1=O : 7
Cc1cc(O)cc(C)c1-c1nc2c([nH]1)c(=O)n(C)c(=O)n2C [8-(2,6-dimethyl-4-hydroxyphenyl)T] : 30
Cn1c(=O)c2[nH]c(-c3ccc(O)cc3)nc2n(C)c1=O [8-(p-hydroxyphenyl)T] : 2
Cn1c(=O)[nH]c2nc(-c3ccccc3)[nH]c2c1=O [1-methyl-8-phenylX] : 2.5
Cn1c(=O)c2[nH]c(-c3ccoc3)nc2n(C)c1=O [8-(3-furyl)T] : 4

GET /values?readout=IC50&item= CCCCOc1ccc(-c2nc3c([nH]2)c(=O)n(C)c(=O)n3C)cc1 [8-(p-butoxyphenyl)T]
4

GET /values?readout=IC50&item= Cn1c(=O)c2[nH]c(-c3ccccc3C(=O)O)nc2n(C)c1=O [8-(o-carboxyphenyl)T]
2500

GET /values?readout=IC50&item= Cn1c(=O)c2[nH]c(-c3cccc(N)c3)nc2n(C)c1=O [8-(m-aminophenyl)T]
10

GET /values?readout=IC50&item= COc1cc(OC)cc(-c2nc3c([nH]2)c(=O)n(C)c(=O)n3C)c1 [8-(3,5-dimethoxyphenyl)T]
500

GET /values?readout=IC50&item= Cn1c(=O)c2[nH]c(-c3ccccc3[N+](=O)[O-])nc2n(C)c1=O [8-(o-nitrophenyl)T]
80

GET /values?readout=IC50&item= COc1ccc(-c2nc3c([nH]2)c(=O)n(C)c(=O)n3C)cc1 [8-(p-methoxyphenyl)T]
1.5

GET /values?readout=IC50&item= Cn1c(=O)c2[nH]c(-c3ccc(I)cc3)nc2n(C)c1=O [8-(p-iodophenyl)T]
1.3

GET /values?readout=IC50&item= Cn1c(=O)c2[nH]c(-c3ccc(C(=O)O)cc3)nc2n(C)c1=O [8-(p-carboxyphenyl)T]
50

GET /values?readout=IC50&item= CCn1c(=O)c2[nH]c(-c3ccc(Br)cc3)nc2n(CC)c1=O [1,3-diethyl-8-(p-bromophenyl)X]
1

GET /values?readout=IC50&item= Cc1ccc(-c2nc3c([nH]2)c(=O)n(C)c(=O)n3C)c(N)c1 [8-(2-amino-4-methylphenyl)T]
10

GET /values?readout=IC50&item= COc1ccc(-c2nc3c([nH]2)c(=O)n(C)c(=O)n3C)c(OC)c1 [8-(2,4-dimethoxyphenyl)T]
200

GET /values?readout=IC50&item= C=CCn1c(=O)c2[nH]c(-c3ccccc3)nc2n(C)c1=O [1-allyl-3-methyl-8-phenylX]
4

GET /values?readout=IC50&item= Cn1c(=O)c2[nH]c(-c3ccccc3O)nc2n(C)c1=O [8-(o-hydroxyphenyl)T]
10

GET /values?readout=IC50&item= CN(C)c1ccc(-c2nc3c([nH]2)c(=O)n(C)c(=O)n3C)cc1 [8-(p-dimethylaminophenyl)T]
1.8

GET /values?readout=IC50&item= Cn1c(=O)c2[nH]c(-c3cccc(Br)c3)nc2n(C)c1=O [8-(m-bromophenyl)T]
10

GET /values?readout=IC50&item= Cc1cccc(-c2nc3c([nH]2)c(=O)n(C)c(=O)n3C)c1 [8-(m-methylphenyl)T]
13

GET /values?readout=IC50&item= CSc1ccc(-c2nc3c([nH]2)c(=O)n(C)c(=O)n3C)cc1 [8-(p-methylthiophenyl)T]
2

GET /values?readout=IC50&item= CC(C)c1ccc(-c2nc3c([nH]2)c(=O)n(C)c(=O)n3C)cc1 [8-(p-isopropylphenyl)T]
2.5

GET /values?readout=IC50&item= Cn1c(=O)c2[nH]c(-c3cccc(C(=O)O)c3)nc2n(C)c1=O [8-(m-carboxyphenyl)T]
1000

GET /values?readout=IC50&item= CN(C)c1cccc(-c2nc3c([nH]2)c(=O)n(C)c(=O)n3C)c1 [8-(m-dimethylaminophenyl)T]
80

GET /values?readout=IC50&item= Cn1c(=O)c2[nH]c(-c3cccc(F)c3)nc2n(C)c1=O [8-(m-fluorophenyl)T]
4

GET /values?readout=IC50&item= COc1ccccc1-c1nc2c([nH]1)c(=O)n(C)c(=O)n2C [8-(o-methoxyphenyl)T]
350

GET /values?readout=IC50&item= Cn1c(=O)c2[nH]c(-c3cccc(O)c3)nc2n(C)c1=O [8-(m-hydroxyphenyl)T]
6

GET /values?readout=IC50&item= Cc1ccc(-c2nc3c([nH]2)c(=O)n(C)c(=O)n3C)cc1 [8-(p-methylphenyl)T]
0.8
